For each record, write down the corresponding inhibition at 25 µg/mL.
# System: T lymphocytes (normal mouse spleen cells) stimulated with ConA
# TEST_PROTOCOL: Mouse Spleen Cell ConA Blastogenesis Assay
# Format: cell-based, mouse (C57Bl/6)
# RUN_CONDITIONS: Mus musculus, T-lymphocyte, ConA 1 ug/ml; compound 25 ug/ml; read-out: % change from control, ConA blastogenic response
# Procedure: It is well known that several plant lectins, when cultured in vitro with lymphocytes, stimulate cellular activation and proliferation. Concanavolin, (ConA) selectively stimulates the blastogenic response of T lymphocytes. […] Cultures were incubated for 3 days at 37° C. in a humidified atmosphere of 5% of CO2 in air. […] The amount of ^3 H-thymidine incorporated by the cultures, as a measure of cell proliferation, was measured in a liquid scintillation counter. […]
One number for each entry, in %.

Example results:
COMPOUND | UNIT_ABBREV | inhibition at 25 µg/mL
CCCCCCCC(=O)OC[C@H]1O[C@@]2(OC)COC(C)(C)O[C@H]2[C@@H]1OC(=O)CCCCCCC | % | 100
CCCCCCCCCCCCOC1C(C(O)CO)OC2OC(C)(C)OC21 (stereo not shown) | % | 99
CCCCCCCC(=O)O[C@@H]1[C@@H](CO)O[C@@]2(OC)COC(C)(C)O[C@@H]12 | % | -39
CCCCCCCOC[C@H]1O[C@](COCC)(OC)[C@@H](OCC)[C@@H]1O | % | 97
CCCCC/C=C\COC[C@H]1O[C@@]2(OC)COC(C)(C)O[C@H]2[C@@H]1OC/C=C\CCCCC | % | 85
CCCCC/C=C\COC[C@H]1O[C@](COC/C=C\CCCCC)(OC)[C@@H](O)[C@@H]1O | % | 84

Now consider a different compound.
Q: If you can, please state the reported inhibition at 25 µg/mL value of CN1CCCC1CCNC[C@H]1OC(C)(C)O[C@@H]2[C@H]3OC(C)(C)O[C@H]3O[C@@H]21 (stereo partly shown) .
A: 23

====

# Tested on: T cell proliferation in mouse spleen cell mixed lymphocyte cultures
# TEST_PROTOCOL: Mixed Lymphocyte Reaction (MLR) assay
# Assay type: cell-based, mouse (Balb/c responder, C57B1/6 stimulator)
# RUN_CONDITIONS: 100 um
MEASUREMENT_LABEL: Mean O.D. Allogenic (O.D.)
Numbers only, in O.D..

Example results:
COMPOUND | UNIT_ABBREV | Mean O.D. Allogenic
CC1(C)OC2OC(C(O)COCCCc3ccccc3)C(O)C2O1 (stereo not drawn) | O.D. | 0.034
CCCCC/C=C\COC[C@H]1O[C@@]2(OC)COC(C)(C)O[C@H]2[C@@H]1OC/C=C\CCCCC | O.D. | 0.102
CCCCCCCO[C@@H]1[C@@H](CO)O[C@@]2(OC)COC(C)(C)O[C@@H]12 | O.D. | 0.163
CN1CCCC1CCNC[C@H]1OC(C)(C)O[C@@H]2[C@H]3OC(C)(C)O[C@H]3O[C@@H]21 (stereo partly drawn) | O.D. | 0.095
CCCCC/C=C\COC[C@H]1O[C@](COC/C=C\CCCCC)(OC)[C@@H](O)[C@@H]1O | O.D. | 0.419

Now consider a different compound.
Q: Lab note: need Mean O.D. Allogenic for CCCCCCCOC[C@H]1O[C@@]2(OC)COC(C)(C)O[C@H]2[C@@H]1O on T cell proliferation in mouse spleen cell mixed lymphocyte cultures, anyone have it?
A: 0.429
